- Target Under Test: Peroxisome proliferator-activated receptor gamma (Homo sapiens) (UniProt P37231)
- Sequence (P37231 whole entry, looked up): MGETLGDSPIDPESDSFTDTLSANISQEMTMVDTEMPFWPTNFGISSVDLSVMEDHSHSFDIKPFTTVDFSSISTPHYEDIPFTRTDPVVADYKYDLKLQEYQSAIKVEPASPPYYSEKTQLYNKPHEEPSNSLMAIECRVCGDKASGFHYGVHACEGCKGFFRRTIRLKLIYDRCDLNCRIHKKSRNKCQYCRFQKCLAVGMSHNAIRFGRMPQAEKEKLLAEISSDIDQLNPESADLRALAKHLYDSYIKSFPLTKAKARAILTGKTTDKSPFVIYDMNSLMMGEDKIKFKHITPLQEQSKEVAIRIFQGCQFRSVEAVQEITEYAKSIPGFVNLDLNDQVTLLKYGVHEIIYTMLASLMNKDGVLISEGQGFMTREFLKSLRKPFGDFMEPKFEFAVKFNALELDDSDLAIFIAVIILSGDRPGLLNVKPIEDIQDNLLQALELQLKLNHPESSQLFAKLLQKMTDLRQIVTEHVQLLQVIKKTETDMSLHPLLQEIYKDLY
- Assay Name: ATG_PPARg_TRANS: Attagene TRANS-FACTORIAL HepG2 Assay for human Peroxisome Proliferator-activated Receptor-gamma (PPARg) (AID 2283007)
Results filed as inconclusive are left out. Activity calls are given as the source filed them. Rule for the calls: active = hit-call score of the fitted dose curve at least 0.9, where 1 is the maximum; inconclusive = response in the unintended direction; inactive = score below 0.9.
Could you please pick one outcome from this set? active, inactive

// return assay outcome for `COc1cc(-c2nc(NC(=O)c3cc4cc(C)cc(C)c4n3CC(=O)O)sc2CCC2CCCCC2)c(OC)cc1Cl`
inactive

// outcome(item) with item = `Nc1ccc2c(c1)C(=O)c1ccccc1C2=O`
active

// param item: `Cc1ccc2ncccc2c1` ; yields the recorded call
inactive

What did the test return for `C[C@]12C=CC(=O)C=C1CC[C@@H]1[C@@H]2C(=O)C[C@@]2(C)[C@H]1CC[C@]2(O)C(=O)CO` ?
inactive

Could you check what this test reported for `CC(C)(C)c1cc(O)c(C(C)(C)C)cc1O` ?
active

What call does the record list for `CCCc1cc(=O)[nH]c(=S)[nH]1` ?
inactive

What call does the record list for `CCCCCCCCCCO` ?
active

# outcome recorded in this test, key = `C1CCC(SSC2CCCCC2)CC1`
inactive

Assay outcome for `Cc1cccc([N+](=O)[O-])c1C` : what was it?
inactive

Entry `CC=Cc1ccc(O)c(OC)c1` : call = ?
active

Hi, sorry to bother you, what did the test record for `CNCc1cc(F)ccc1Oc1ccc(Cl)c(Cl)c1` ?
inactive

Could you kindly confirm the outcome this assay logged for `CNC(=O)[C@H]1O[C@@H](n2cnc3c(NCc4cc(Cl)ccc4OCc4cc(C)no4)ncnc32)[C@H](O)[C@@H]1N` ?
inactive

State the result this test recorded for `CCCCOC(=O)CCCCCCCCC(=O)OCCCC` .
inactive

Please share the test call associated with `Cc1oc(-c2ccccc2)nc1CCOc1cccc2c1ccn2CCC(=O)O` .
active

Please let me know the test result on file for Cc1nc(-c2ccc3c(c2)CCN(CCC2CCC(NC(=O)/C=C/c4ccc(F)cc4)CC2)CC3)no1 (centres undefined) .
inactive

Call for entry `COc1ccc(S(=O)(=O)N2C(=O)[C@@](c3ccccc3OC)(N3C[C@H](O)C[C@H]3C(=O)N(C)C)c3cc(Cl)ccc32)c(OC)c1` :
inactive

Dear colleague, could you share the recorded outcome for `CCCCCCCC=O` when you have a moment?
active

Which result was noted for this compound in the test: `COc1cccc2c1C(=O)c1c(O)c3c(c(O)c1C2=O)C[C@@](O)(C(=O)CO)C[C@@H]3O[C@H]1C[C@H](N)[C@H](O)[C@H](C)O1`
inactive

For `Oc1ccc2c(c1)OC[C@@H](N1CCC(O)(c3ccc(F)cc3)CC1)[C@H]2O` , what call appears in the results of this test?
active

Give the logged outcome of this assay for the following compound: `Cc1ccc(Cl)cc1`
inactive

What did the test return for `CCOc1ccc2c(c1)C(C)=CC(C)(C)N2` ?
active

Hi team, can someone confirm the assay call for CCCCC(CC)COC(=O)CC(C(=O)OCC(CC)CCCC)S(=O)(=O)O (centres undefined) ?
active

Recorded call for `Cc1ccc(C(C)C)c(O)c1` ?
inactive

Status in this test for `COc1cc(S(=O)(=O)O)c(C)cc1N=Nc1c(O)ccc2cc(S(=O)(=O)O)ccc12` ?
inactive

Test call for this compound, please: `Oc1ccc2ccccc2c1N=Nc1ccccc1`
active

Record lookup: outcome of this test for `COc1cc(/C=C/C(=O)CC(=O)/C=C/c2ccc(O)c(OC)c2)ccc1O` ?
active

Just curious, what result did `Nc1ccc(S(=O)(=O)c2ccc(N)cc2)cc1` get here?
inactive

Field: outcome | Entry: COCCOC[C@H](CC1(C(=O)NC2CCC(C(=O)O)CC2)CCCC1)C(=O)Oc1ccc2c(c1)CCC2 (some centres undefined)
inactive

Name the outcome recorded for `Cc1ccc(C)c(O)c1C` in the assay.
inactive

====

- Read-out: MicroRNA 122 (MIR122), gene 406906
- Assay Name: LTEA_HepaRG_MIR122: Life Technologies and Expression Analysis (LTEA) Assay for MicroRNA 122 (MIR122) using HepaRG (AID 2283516); note: the transcript read is the microRNA miR-122
- Condition Label: mRNA level, 48 h; actives raise or lower the signal
Activity calls are given as the source filed them. The calls were made as follows: active = hit-call score of the fitted dose curve at least 0.9, where 1 is the maximum; inactive = score below 0.9.
Parameter call: string, one of true = active, false = inactive

For this molecule, state the assay outcome: `CCCCCCCC=O`
false

Which result was noted for this molecule in the test: `NCC1(Cc2noc(=O)[nH]2)CCCCC1`
false

Dear all, I need the recorded test outcome for `O=[N+]([O-])C(CO)(CO)CO` , thank you.
false

Please state the recorded outcome for this molecule: `CC=Cc1ccc(O)c(OC)c1`
false

For this molecule, state the assay outcome: `Cc1ccccc1Cl`
false

Assay outcome for `CCc1c(C(=O)NN2CCCCC2)nn(-c2ccc(Cl)cc2Cl)c1-c1ccc(Br)cc1` : what was it?
true

# fetch the recorded call for COCCOC[C@H](CC1(C(=O)NC2CCC(C(=O)O)CC2)CCCC1)C(=O)Oc1ccc2c(c1)CCC2 (some centres not stated) here
false

Field: outcome | Entry: `CCCCCCCCCCCCCO`
false

Dear all, I need the recorded test outcome for `CC(=O)Oc1ccccc1C(=O)O` , thank you.
false

Could you kindly confirm the outcome this assay logged for `CN[C@H]1CC[C@@H](c2ccc(Cl)c(Cl)c2)c2ccc(S(N)(=O)=O)cc21` ?
false

Could you please tell me the result logged for `COc1ccc(S(=O)(=O)N2C(=O)[C@@](c3ccccc3OC)(N3C[C@H](O)C[C@H]3C(=O)N(C)C)c3cc(Cl)ccc32)c(OC)c1` in this assay?
true

What did the test return for `CC(C)c1ccc(C(=O)N=C(N)N)cc1S(C)(=O)=O` ?
true

====

- Target Under Test: Muscarinic acetylcholine receptor M2 (Homo sapiens)
- Assay Name: NVS_GPCR_hM2: NovaScreen (NVS) G Protein-Coupled Receptor Assay for human Muscarinic, M2 Receptor (AID 2283273)
Inconclusive results are not listed. Calls of active or inactive are those of the source. The calls were made as follows: active = hit-call score of the fitted dose curve at least 0.9, where 1 is the maximum; inconclusive = response in the unintended direction; inactive = score below 0.9.
// allowed return values: label 1 = active, label 0 = inactive

Hey, what did the test say about CC1(C)CC(N=C=O)CC(C)(CN=C=O)C1 (stereo not given) ?
label 1

I'd appreciate the recorded outcome for `Nc1nc(N)c2nc(CNc3ccc(C(=O)N[C@@H](CCC(=O)O)C(=O)O)cc3)cnc2n1` from this test.
label 1

Record request — test call for Cc1nc(-c2ccc3c(c2)CCN(CCC2CCC(NC(=O)/C=C/c4ccc(F)cc4)CC2)CC3)no1 (stereo not given)
label 1

Record request — test call for `Nc1ccc2c(c1)C(=O)c1ccccc1C2=O`
label 0

Test call for this compound, please: `Cc1c(C(=O)O)c(O)cc2c1C(=O)c1c(O)c([C@@H]3O[C@H](CO)[C@@H](O)[C@H](O)[C@H]3O)c(O)c(O)c1C2=O`
label 0

====

- Read-out: Interleukin-8 (IL8), CXCL8 (gene 3576)
- Assay Name: BSK_3C_IL8: BioMAP Diversity Plus: 3C Assay for Interleukin-8 (IL8) Biomarker Activity (AID 2283020)
- Condition Label: primary human endothelial cells (HUVEC); actives raise or lower the signal
Active and inactive are the calls of the source. How the source made its calls: active means hit-call score of the fitted dose curve at least 0.9, where 1 is the maximum; inactive means score below 0.9.
Pick one and only one: active, inactive

Which outcome was assigned to `CN1CCCC1=O` in this test?
inactive

Entry `CN[C@H]1CC[C@@H](c2ccc(Cl)c(Cl)c2)c2ccc(S(N)(=O)=O)cc21` : call = ?
active

State the result this test recorded for `CCCCc1ccc2c(n1)[C@@H](c1ccc(OC)cc1C[C@H](C)C(=O)O)[C@H](C(=O)O)[C@H]2c1ccc2c(c1)OCO2` .
inactive

Identify the outcome logged in this assay for the molecule shown: `Nc1nc(N)c2nc(CNc3ccc(C(=O)N[C@@H](CCC(=O)O)C(=O)O)cc3)cnc2n1`
inactive

I would be grateful if you could indicate the recorded call for `Clc1cc(Cl)c(Cl)cc1Cl` .
inactive

Would you mind telling me which call this test gave `C=CCc1ccc(O)c(OC)c1` ?
inactive

Recorded call for `CCCCCCC(=O)OCC` ?
inactive

Name the outcome recorded for `Cc1c(C(=O)O)c(O)cc2c1C(=O)c1c(O)c([C@@H]3O[C@H](CO)[C@@H](O)[C@H](O)[C@H]3O)c(O)c(O)c1C2=O` in the assay.
inactive

Record lookup: outcome of this test for `COc1cc(S(=O)(=O)O)c(C)cc1N=Nc1c(O)ccc2cc(S(=O)(=O)O)ccc12` ?
inactive

Lab log entry: `Cc1cccc(Nc2cc(Cl)nc(SCC(=O)O)n2)c1C` — outcome as called in the assay?
inactive

// outcome(item) with item = `COC(=O)c1ccc(O)cc1`
inactive

What did the test return for `COc1ccc2c(c1)c(CC(=O)O)c(C)n2C(=O)c1ccc(Cl)cc1` ?
inactive

Field: outcome | Entry: `Cc1ccc(Cl)cc1`
inactive

What did the test return for `Oc1ccc2c(c1)OC[C@@H](N1CCC(O)(c3ccc(F)cc3)CC1)[C@H]2O` ?
inactive

So what was the verdict on `C[C@]12C=CC(=O)C=C1CC[C@@H]1[C@@H]2C(=O)C[C@@]2(C)[C@H]1CC[C@]2(O)C(=O)CO` in this test?
inactive

How did this test come out for COCCOC[C@H](CC1(C(=O)NC2CCC(C(=O)O)CC2)CCCC1)C(=O)Oc1ccc2c(c1)CCC2 (stereo partly drawn) ?
inactive

Lab log entry: `CCCCCCCCCCCCCCCCCC(=O)O` — outcome as called in the assay?
inactive

I would be grateful if you could indicate the recorded call for `NC(=O)Cn1c(=O)cc(CCN2CCN(c3nccc4sccc34)CC2)c2ccc(F)cc21` .
inactive

Write down the call the test reported for this molecule. Item: `CCCCCCCCCCCC(=O)OC`
inactive

Call for entry `CC(=O)Oc1ccccc1C(=O)O` :
inactive

Short answer needed: outcome of this test for `O=[N+]([O-])C(CO)(CO)CO` ?
inactive

So what was the verdict on `Oc1ccc2ccccc2c1N=Nc1ccccc1` in this test?
inactive

Call for entry `CCc1c(C(=O)NN2CCCCC2)nn(-c2ccc(Cl)cc2Cl)c1-c1ccc(Br)cc1` :
active
